TEST_NAME: Pharmacokinetic study in dogs, released DPTIP in plasma after IV or peroral dose
Assay type: in vivo, male Beagle dogs
PARTICULARS: male, Beagle, dog, plasma, iv, 1 mg/kg, IV 1 mg/kg, value dose adjusted to 2 mg/kg, read-out: AUC0–t
MEASUREMENT_LABEL: AUC(0-t)
Record the result as number plus unit.

## Task Return AUC(0-t) (reported value) for this molecule: COc1cc(-c2nc(-c3cccs3)c(-c3ccccc3)[nH]2)cc(OC)c1O
## Result 7.81 µM·h

====

TEST_NAME: Pharmacokinetic study in dogs, released DPTIP in plasma after IV or peroral dose
Type: in vivo, male Beagle dogs
PARTICULARS: male, Beagle, dog, plasma, IV 1 mg/kg, read-out: initial plasma concentration (C0)
MEASUREMENT_LABEL: C0
Record the result as number plus unit.

## Task Return C0 (reported value) for this compound: COc1cc(-c2nc(-c3cccs3)c(-c3ccccc3)[nH]2)cc(OC)c1O [DPTIP]
## Result 2500 nM
